# system: hOAT1 (Homo sapiens)
# Construct: host or cells: MDCK
# Sequence (Q4U2R8 whole entry): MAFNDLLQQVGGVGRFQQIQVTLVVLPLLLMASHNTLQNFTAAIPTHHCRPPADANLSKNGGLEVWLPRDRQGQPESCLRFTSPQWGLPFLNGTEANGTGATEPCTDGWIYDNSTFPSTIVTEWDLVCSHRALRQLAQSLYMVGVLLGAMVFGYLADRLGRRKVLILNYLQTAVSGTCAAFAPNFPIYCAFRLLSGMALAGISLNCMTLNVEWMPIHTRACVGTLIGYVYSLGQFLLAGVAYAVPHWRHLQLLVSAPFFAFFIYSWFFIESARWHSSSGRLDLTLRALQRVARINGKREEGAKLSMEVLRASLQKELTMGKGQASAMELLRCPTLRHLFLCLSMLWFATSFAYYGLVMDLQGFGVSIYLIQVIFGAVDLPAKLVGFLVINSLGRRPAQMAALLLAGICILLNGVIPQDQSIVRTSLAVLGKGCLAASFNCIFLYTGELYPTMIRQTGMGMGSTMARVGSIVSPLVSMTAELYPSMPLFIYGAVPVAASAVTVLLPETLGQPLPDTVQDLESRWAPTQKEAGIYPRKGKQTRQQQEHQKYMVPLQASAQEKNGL
# measurement.protocol: Inhibition of hOAT1-mediated uptake of 14C-PAH in hOAT1-MDCK cells
# Type: cell-based
recorded.metric: IC50
Please provide the amount together with its unit, number first.

Q: Given the entry O=C(O)c1cc(O)c(O)c(O)c1 [GA, Gallic acid] , report its measured IC50.
Result: 8.01 µM

---

# measurement.protocol: clinical
# experimental.context: male, human, plasma, oral, AUC 0-∞, plasma PK-marker, human subjects, single dose of PCE (8 g) + CIP 0.5 g
recorded.metric: AUC(0-inf) (ng·h/mL)
Quick note: give the figure in ng·h/mL, leave out the unit.

Q: Given the entry `O=C(O)c1ccc(O)c(O)c1` , report its measured AUC(0-inf).
Result: 4.4

---

# measurement.protocol: clinical
# experimental.context: male, human, in vivo, po, AUC 0-∞
recorded.metric: AUC(0-inf) (ng·h/mL)
Quick note: give the figure in ng·h/mL, leave out the unit.

Q: Given the entry O=C(O)c1cc(O)c(O)c(O)c1 [GA, Gallic acid] , report its measured AUC(0-inf).
Result: 248

---

# measurement.protocol: clinical
# experimental.context: male, human, plasma, oral, AUC 0-∞, plasma PK-marker, human subjects, multiple doses of PCE (8 g, TID, seven days) + CIP 0.5 g
recorded.metric: AUC(0-inf) (ng·h/mL)
Quick note: give the figure in ng·h/mL, leave out the unit.

Q: Given the entry `O=C(O)c1ccc(O)c(O)c1` , report its measured AUC(0-inf).
Result: 3.35

---

# measurement.protocol: clinical
# experimental.context: male, human, in vivo, po, C max
recorded.metric: Cmax (ng/mL)
Quick note: give the figure in ng/mL, leave out the unit.

Q: Given the entry `O=C(O)c1cc(O)c(O)c(O)c1` , report its measured Cmax.
Result: 130

---

# measurement.protocol: clinical
# experimental.context: male, human, plasma, oral, V z/F, plasma PK-marker, human subjects, multiple doses of PCE (8 g, TID, seven days) + CIP 0.5 g
recorded.metric: Vd/F (L)
Quick note: give the figure in L, leave out the unit.

Q: Given the entry `O=C(O)c1ccc(O)c(O)c1` , report its measured Vd/F.
Result: 150

---

# system: hOCT2 (Homo sapiens, UniProt O15244)
# Sequence (O15244 1-555): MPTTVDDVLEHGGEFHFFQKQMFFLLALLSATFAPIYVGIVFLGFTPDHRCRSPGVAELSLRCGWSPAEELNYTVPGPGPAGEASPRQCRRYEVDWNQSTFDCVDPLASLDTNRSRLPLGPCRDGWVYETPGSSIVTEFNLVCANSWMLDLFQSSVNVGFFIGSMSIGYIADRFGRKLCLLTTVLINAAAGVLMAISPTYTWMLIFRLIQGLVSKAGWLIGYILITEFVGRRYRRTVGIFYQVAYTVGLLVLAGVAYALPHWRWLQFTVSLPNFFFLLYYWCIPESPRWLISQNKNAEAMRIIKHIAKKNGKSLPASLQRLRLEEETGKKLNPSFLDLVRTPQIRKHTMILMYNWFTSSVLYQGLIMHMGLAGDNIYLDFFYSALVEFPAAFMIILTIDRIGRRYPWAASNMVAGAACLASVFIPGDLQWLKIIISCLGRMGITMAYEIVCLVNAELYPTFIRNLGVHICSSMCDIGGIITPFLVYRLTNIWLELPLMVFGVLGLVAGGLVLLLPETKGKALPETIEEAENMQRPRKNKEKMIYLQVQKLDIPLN
# measurement.protocol: Inhibition of hOCT2-mediated uptake of 14C-TEA in hOCT2-S2 cells
# experimental.context: 14C-TEA 5 µM
recorded.metric: IC50 (µM)
Quick note: give the figure in µM, leave out the unit.

Q: Given the entry O=C(O)c1ccc(O)c(O)c1 [PCA, protocatechuic acid] , report its measured IC50.
Result: 107

---

# measurement.protocol: in vivo
# experimental.context: male, Sprague-Dawley, rat, plasma, po, 0.72 g/kg, t 1/2, plasma PK-marker, rats, intragastric PCE 0.72 g/kg alone
recorded.metric: half-life

Q: Given the entry O=C(O)c1ccc(O)c(O)c1 [PCA, protocatechuic acid] , report its measured half-life.
Result: 40.8 min

---

# measurement.protocol: clinical
# experimental.context: male, human, plasma, po, V z/F, plasma PK-marker, human subjects, oral single dose of PCE (8 g) alone
recorded.metric: Vd/F (L)
Quick note: give the figure in L, leave out the unit.

Q: Given the entry `O=C(O)c1ccc(O)c(O)c1` , report its measured Vd/F.
Result: 148

---

# measurement.protocol: in vivo
# experimental.context: male, Sprague-Dawley, rat, plasma, po, 0.72 g/kg, k e, plasma PK-marker, rats, intragastric PCE 0.72 g/kg + CIP […]
recorded.metric: k el (s⁻¹)
Quick note: give the figure in s⁻¹, leave out the unit.

compound.smiles	k el / s⁻¹
O=C(O)c1ccc(O)c(O)c1	0.000306

Here's the next entry for you.
Q: Given the entry `O=C(O)c1cc(O)c(O)c(O)c1` , report its measured k el.
Result: 0.000122

Taken from paper PMC9640990.
